assayed_system: UniProt:P11712
Sequence (P11712 whole entry): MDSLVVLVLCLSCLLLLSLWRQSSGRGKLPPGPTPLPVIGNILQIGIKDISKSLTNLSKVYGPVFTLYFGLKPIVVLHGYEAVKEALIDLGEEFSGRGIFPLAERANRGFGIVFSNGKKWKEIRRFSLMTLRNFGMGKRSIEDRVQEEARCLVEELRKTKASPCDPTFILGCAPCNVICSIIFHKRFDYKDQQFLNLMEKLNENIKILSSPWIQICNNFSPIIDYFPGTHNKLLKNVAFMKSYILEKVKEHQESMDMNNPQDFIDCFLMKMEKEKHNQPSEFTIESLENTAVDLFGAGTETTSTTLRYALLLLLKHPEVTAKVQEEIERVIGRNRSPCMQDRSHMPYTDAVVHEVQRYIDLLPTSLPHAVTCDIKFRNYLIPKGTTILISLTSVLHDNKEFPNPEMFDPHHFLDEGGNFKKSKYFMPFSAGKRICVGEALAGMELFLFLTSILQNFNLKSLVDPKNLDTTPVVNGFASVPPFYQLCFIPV
quantity: IC50 (µM)

1) C/C(=C\c1csc(CN)n1)[C@@H]1C[C@@H]2O[C@]2(C)CCC[C@H](C)[C@H](O)[C@@H](C)C(=O)C(C)(C)[C@@H](O)CC(=O)O1 (relative stereo)
10.6

----------
experiment_summary: Oral bioavailability in humans
test_parameters: in vivo, 40 mg/m2; human patients, oral, 40 mg/m^2, n=10; read-out: Tmax, median (minimum, maximum)
quantity: Tmax

1) C/C(=C\c1csc(CN)n1)[C@@H]1C[C@@H]2O[C@]2(C)CCC[C@H](C)[C@H](O)[C@@H](C)C(=O)C(C)(C)[C@@H](O)CC(=O)O1 (relative stereo) [Compound A]
1 h

----------
assayed_system: human CYP2C19 (Homo sapiens, UniProt P33261)
Sequence (P33261 whole entry): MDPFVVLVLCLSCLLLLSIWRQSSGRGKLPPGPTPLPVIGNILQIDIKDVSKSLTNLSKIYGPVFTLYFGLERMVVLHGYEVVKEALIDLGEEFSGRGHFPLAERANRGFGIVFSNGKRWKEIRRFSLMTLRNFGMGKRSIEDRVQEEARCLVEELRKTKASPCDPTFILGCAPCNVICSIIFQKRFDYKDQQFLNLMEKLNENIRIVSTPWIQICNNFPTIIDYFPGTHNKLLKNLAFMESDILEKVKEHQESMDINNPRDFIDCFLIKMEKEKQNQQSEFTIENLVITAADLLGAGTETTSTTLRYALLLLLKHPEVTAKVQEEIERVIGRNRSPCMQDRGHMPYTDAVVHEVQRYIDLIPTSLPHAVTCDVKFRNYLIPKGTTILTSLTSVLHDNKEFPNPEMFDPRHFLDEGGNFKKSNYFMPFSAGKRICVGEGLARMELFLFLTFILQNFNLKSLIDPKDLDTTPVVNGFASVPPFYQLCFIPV
quantity: IC50 (µM)

1) C/C(=C\c1csc(CN)n1)[C@@H]1C[C@@H]2O[C@]2(C)CCC[C@H](C)[C@H](O)[C@@H](C)C(=O)C(C)(C)[C@@H](O)CC(=O)O1 (relative stereo)
2.4
